All figures here come from patent US20110135636A1.

- ASSAYED_SYSTEM: T1, wild type full length EGFR purified from A431 cells (human, UniProt P00533 25-1210)
- T1 construct: mature; Bought; coated on ELISA wells; also called full length EGFR receptor antigen; Sigma E3641
- TEST_SUMMARY: competition ELISA, competitor Ab-3
- Set-up: concentration or dose not given beside the values
Reported % inhibition values for the following binders.
Kindly provide the numeric value in % only, without the unit symbol.

INSERT INTO results (binder, uom, measurement) VALUES
  ('antibody 1308 (antibody, human IgG1, kappa, V domains shown, Chimeric IgG1 kappa) VH: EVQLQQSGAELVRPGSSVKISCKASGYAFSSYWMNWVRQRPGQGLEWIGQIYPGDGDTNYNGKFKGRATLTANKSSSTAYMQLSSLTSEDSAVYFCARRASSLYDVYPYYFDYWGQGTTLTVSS VL: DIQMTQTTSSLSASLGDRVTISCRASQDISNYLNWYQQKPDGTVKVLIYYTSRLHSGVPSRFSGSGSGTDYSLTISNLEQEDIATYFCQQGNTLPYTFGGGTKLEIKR', '%', 19);

% inhibition recorded for this binder, antibody 1257 (antibody, human IgG1, kappa, V domains shown, Chimeric IgG1 kappa) VH: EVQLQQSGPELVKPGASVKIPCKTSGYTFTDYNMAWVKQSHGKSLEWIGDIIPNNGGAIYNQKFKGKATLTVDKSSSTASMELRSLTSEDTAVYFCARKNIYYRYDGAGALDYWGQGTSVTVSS VL: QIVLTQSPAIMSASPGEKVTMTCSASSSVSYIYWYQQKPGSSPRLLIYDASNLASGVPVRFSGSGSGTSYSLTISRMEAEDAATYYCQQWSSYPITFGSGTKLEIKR , is 77

Memo: antibody 1030 (antibody, human IgG1, kappa, V domains shown, Chimeric IgG1 kappa) VH: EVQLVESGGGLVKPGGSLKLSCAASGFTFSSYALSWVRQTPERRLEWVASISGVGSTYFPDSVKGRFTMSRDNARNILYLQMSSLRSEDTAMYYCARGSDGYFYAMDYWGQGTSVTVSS VL: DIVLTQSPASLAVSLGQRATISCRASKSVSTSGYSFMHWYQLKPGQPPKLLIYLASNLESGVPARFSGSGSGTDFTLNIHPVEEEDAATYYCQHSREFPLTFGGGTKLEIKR , reported % inhibition: -35

For antibody 1042 (antibody, human IgG1, kappa, V domains shown, Chimeric IgG1 kappa; RA- left out of the VH entry) VH: QVQLQQPGAELVKPGASVKLSCKASGYTFTSHWMHWVQQRPGQGLEWIGEIHPSNGRTNYNEKFKNKATLTVDKSPSTAYMQLSSLTSEDSAVYYCARYYGYDDAMDYWGQGTSVTVSS VL: DIVMTQAAFSNPVTLGTSASISCRSSKSLLHSNGITYLYWYLQKPGQSPQLLIYQMSNLASGVPDRFSSSGSRTDFTLRISRVEAEDVGVYYCAQNLELPYTFGGGTKLEIKR the binder record lists % inhibition as -29
